B1: glmS ribozyme (parent)
chain: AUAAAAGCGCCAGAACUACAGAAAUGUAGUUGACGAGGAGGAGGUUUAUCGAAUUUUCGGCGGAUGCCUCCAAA

- Variants of: B1
- Procedure summary: self-cleavage kobs at 2500 uM GlcN6P; higher = faster cleavage; RNA array
- Experimental parameters: with glucosamine-6-phosphate
Variants at the floor of the assay were thinned out.
Decision: self-cleavage kobs at 2500 uM GlcN6P >= 0.0001 s⁻¹ yields fulfilled, all other cases yield not fulfilled.

Mutation string | Category
G41U G63A | not fulfilled
G32U C67G | not fulfilled
A14G A52U C67U | fulfilled
C11G G13A C70G | not fulfilled
A6G U55G | fulfilled
A12U U47G | fulfilled
C11U U31C C50U | not fulfilled
C11G A12C A48C | not fulfilled
C11U A53U | fulfilled
A6G G7C A36U A39U | not fulfilled
G44A C61G | not fulfilled
